Protocol description: In vitro penetration across isolated human skin in modified Franz cells
Condition summary: pH 7.4
Exercise: for every item that follows, state its recorded In vitro Penetration Rate (apparent flux), HPPs.
Numbers only, in mg/cm^2/h.

# batch size: 3; output In vitro Penetration Rate (apparent flux), HPPs per entry
1. C=CC1=C(C(=O)OCCN(CC)CC)N2C(=O)C(NC(=O)/C(=N\OCC(=O)OCC)c3csc(NC(C)=O)n3)C2SC1.Cl (stereo not drawn)
2. CC1(C)SC2C(NC(=O)[C@H](NC(=O)N3CCNC3=O)c3ccccc3)C(=O)N2C1C(=O)OCC1CCCN1.Cl (stereo partly drawn)
3. CCN(CC)CCOC(=O)C1N2C(=O)C(NC(=O)[C@H](NC(=O)N3CCN(CC)C(=O)C3=O)c3ccccc3)C2SC1(C)C.Cl (stereo partly drawn)

1. 0.58
2. 0.72
3. 0.74

====

Protocol description: In vitro penetration across isolated human skin in modified Franz cells
Condition summary: human, 10 %, pH 7.4
Measured attribute: In vitro Penetration Rate (apparent flux), Parent compounds

Solved entries (count: 8):
NCc1ccccc1CC(=O)N[C@@H]1C(=O)N2C(C(=O)O)=C(CSc3nnnn3CC(=O)O)CS[C@H]12 [Ceforanide, reference compound]	<0.001 mg/cm^2/h
CO/N=C(\C(=O)N[C@@H]1C(=O)N2C(C(=O)O)=C(COC(N)=O)CS[C@H]12)c1ccco1 [Cefuroxime, reference compound]	<0.001 mg/cm^2/h
CC1(C)S[C@@H]2[C@H](NC(=O)[C@H](NC(=O)N3CCNC3=O)c3ccccc3)C(=O)N2[C@H]1C(=O)O [Azlocillin, reference compound]	<0.001 mg/cm^2/h
CC1(C)S[C@@H]2[C@H](NC(=O)[C@H](NC(=O)N3CCN(S(C)(=O)=O)C3=O)c3ccccc3)C(=O)N2[C@H]1C(=O)O [Mezlocillin, reference compound]	<0.001 mg/cm^2/h
CC(=O)OCC1=C(C(=O)O)N2C(=O)[C@@H](NC(=O)Cc3cccs3)[C@H]2SC1 [Cephalothin, reference compound]	<0.001 mg/cm^2/h
COCC1=C(C(=O)OC(C)OC(=O)OC(C)C)N2C(=O)[C@@H](NC(=O)/C(=N\OC)c3csc(N)n3)[C@H]2SC1 (some centres unmarked) [Cefpodoxime proxetil, reference compound]	<0.001 mg/cm^2/h
CO[C@@]1(NC(=O)Cc2cccs2)C(=O)N2C(C(=O)O)=C(COC(N)=O)CS[C@@H]21 [cefoxitin, reference compound]	<0.001 mg/cm^2/h
CO/N=C(\C(=O)N[C@@H]1C(=O)N2C(C(=O)O)=CCS[C@H]12)c1csc(N)n1 [Ceftizoxime, reference compound]	<0.010 mg/cm^2/h

Okay, here is my list. What is In vitro Penetration Rate (apparent flux), Parent compounds for each of these?
1. Cc1onc(-c2c(Cl)cccc2Cl)c1C(=O)N[C@@H]1C(=O)N2[C@@H]1SC(C)(C)[C@@H]2C(=O)O [Dicloxacillin, reference compound]
2. Cc1onc(-c2ccccc2)c1C(=O)N[C@@H]1C(=O)N2[C@@H]1SC(C)(C)[C@@H]2C(=O)O [Oxacillin, reference compound]
3. C=CC1=C(C(=O)O)N2C(=O)[C@@H](NC(=O)/C(=N\OCC(=O)O)c3csc(N)n3)[C@H]2SC1 [Cefixime, reference compound]
4. CCN1CCN(C(=O)N[C@@H](C(=O)N[C@@H]2C(=O)N3C(C(=O)O)=C(CSc4nnnn4C)CS[C@H]23)c2ccc(O)cc2)C(=O)C1=O [Cefoperazone, reference compound]
5. COc1cccc(OC)c1C(=O)N[C@@H]1C(=O)N2[C@@H]1SC(C)(C)[C@@H]2C(=O)O [Methicillin, reference compound]
6. N[C@@H](C(=O)N[C@@H]1C(=O)N2C(C(=O)O)=C(Cl)CS[C@H]12)c1ccccc1 [Cefaclor, reference compound]

["<0.001 mg/cm^2/h", "<0.001 mg/cm^2/h", "<0.010 mg/cm^2/h", "<0.015 mg/cm^2/h", "<0.001 mg/cm^2/h", "<0.016 mg/cm^2/h"]

====

Give Half life of HPPs in plasma for every item shown.
Protocol description: Conversion of HPPs to parent drugs in human plasma (half life)
Type: in vitro ADME
Condition summary: human plasma, 37° C.
Give bare numbers, in min.

CCN(CC)CCOC(=O)C1N2C(=O)C(NC(=O)c3c(OC)cccc3OC)C2SC1(C)C.Cl (stereo not shown) [methicillin-DEE]	10
CCN(CC)CCOC(=O)C1N2C(=O)C(NC(=O)[C@H](NC(=O)N3CCN(CC)C(=O)C3=O)c3ccccc3)C2SC1(C)C.Cl (stereo partly shown)	15
CCN(CC)CCOC(=O)C1=C(COC(C)=O)CSC2C(NC(=O)Cc3cccs3)C(=O)N12.Cl (stereo not shown)	9

Now consider a different compound.
Need Half life of HPPs in plasma, item C=CC1=C(C(=O)OCCN(CC)CC)N2C(=O)C(NC(=O)/C(=N\OCC(=O)OCC)c3csc(NC(C)=O)n3)C2SC1.Cl (stereo not shown) 9

====

Protocol description: In vitro penetration across isolated human skin in modified Franz cells
Condition summary: pH 7.4
Labelling: In vitro Penetration Rate (apparent flux), HPPs reported below 0.8 mg/cm^2/h becomes 1.0; at or above becomes 0.0.

C=CCSCC(=O)NC1C(=O)N2C1SC(C)(C)C2C(=O)OCCN(C)C.Cl (centres unmarked)	1.0
CCN(CC)CCOC(=O)C1=C(COC(C)=O)CSC2C(NC(=O)Cc3cccs3)C(=O)N12.Cl (centres unmarked)	1.0
Cc1onc(-c2c(Cl)cccc2Cl)c1C(=O)NC1C(=O)N2C1SC(C)(C)C2C(=O)OCCN1CCCCC1.Cl (centres unmarked)	1.0
CCN(CC)CCOC(=O)C1N2C(=O)C(NC(=O)COc3ccccc3)C2SC1(C)C.Cl (centres unmarked)	1.0
Cc1onc(-c2ccccc2Cl)c1C(=O)NC1C(=O)N2C1SC(C)(C)C2C(=O)OCCC1CCCNC1.Cl (centres unmarked)	0.0

Now for a further compound.
Please let me know if CCCN(CCC)CCOC(=O)C1N2C(=O)C(NC(=O)c3c(OC)cccc3OC)C2SC1(C)C.Cl (centres unmarked) shows In vitro Penetration Rate (apparent flux), HPPs below 0.8 mg/cm^2/h. 1.0

====

Field: In vitro Penetration Rate (apparent flux), HPPs of sulfonamides, sulfones, quinolones. Provide a value for each of the compounds that follow.
Protocol description: In vitro penetration across isolated human skin in modified Franz cells
Condition summary: pH 7.4
Give your result as the value with the unit written after it.

CCN(CC)CCCOC(=O)C1=CC(=NNc2ccc(S(=O)(=O)Nc3ccccn3)cc2)C=CC1=O.Cl [sulfasalazine-DEPE]	0.21 ± 0.03 mg/cm^2/h
CN(C)CCCC(=O)Nc1ccc(S(N)(=O)=O)cc1.Cl [DMAB-sulfanilamide]	0.18 ± 0.03 mg/cm^2/h
CCCCOC(=O)c1cn(C2CC2)c2cc(N3CCNCC3)c(F)cc2c1=O.Cl [ciprofloxacin-BE]	0.29 ± 0.02 mg/cm^2/h

Quick check: In vitro Penetration Rate (apparent flux), HPPs of sulfonamides, sulfones, quinolones of CCN(CC)CCOC(=O)c1cn(CC)c2nc(C)ccc2c1=O.Cl [nalidixic acid-DEE] ? 0.25 ± 0.04 mg/cm^2/h

====

Protocol description: In vitro penetration across isolated human skin in modified Franz cells
Condition summary: human, 10 %, pH 7.4
Task for the reader: assign each of the following molecules its reported In vitro Penetration Rate (apparent flux), HPPs.

I need In vitro Penetration Rate (apparent flux), HPPs for every entry listed below, if you could help.
1. CCN(CC)CCOC(=O)C1=C(COC(C)=O)CSC2C(NC(=O)C(=NOC)c3csc(NC(C)=O)n3)C(=O)N12.Cl (centres unmarked)
2. CCN(CC)CCOC(=O)C1=C(COC(N)=O)CSC2N1C(=O)C2(NC(=O)Cc1cccs1)OC.Cl (centres unmarked)
3. CCN(CC)CCOC(=O)C1=C(Cl)CSC2C(NC(=O)C(NC(C)=O)c3ccccc3)C(=O)N12.Cl (centres unmarked)
4. CCN(CC)CCOC(=O)C1=C(COC)CSC2C(NC(=O)/C(=N\OC)c3csc(NC(C)=O)n3)C(=O)N12.Cl (centres unmarked)
5. CCN(CC)CCOC(=O)C1=CCSC2C(NC(=O)C(=NOC)c3csc(NC(C)=O)n3)C(=O)N12.Cl (centres unmarked)

["0.73 ± 0.06 mg/cm^2/h", "0.61 ± 0.05 mg/cm^2/h", "0.71 ± 0.05 mg/cm^2/h", "0.51 ± 0.03 mg/cm^2/h", "0.62 ± 0.05 mg/cm^2/h"]

The following molecules each have a reported value; give each one's In vitro Penetration Rate (apparent flux), HPPs.
1. CCN(CC)CCOC(=O)C1=C(CSc2nnnn2C)CSC2C(NC(=O)C(NC(=O)N3CCN(CC)C(=O)C3=O)c3ccc(OC(C)=O)cc3)C(=O)N12.Cl (centres unmarked)
2. CCOC(=O)Cn1nnnc1SCC1=C(C(=O)OCCN(CC)CC)N2C(=O)C(NC(=O)Cc3ccccc3CNC(C)=O)C2SC1.Cl (centres unmarked)
3. CCN(CC)CCOC(=O)C1=C(CSc2nnnn2C)CSC2C(NC(=O)C(O)c3ccccc3)C(=O)N12.Cl (centres unmarked)

1: 0.57 ± 0.04 mg/cm^2/h; 2: 0.52 ± 0.04 mg/cm^2/h; 3: 0.75 ± 0.05 mg/cm^2/h
